target: LK35.2-hPD-L1 cells / PE-labeled PD-1-Ig (Homo sapiens, UniProt Q9NZQ7); construct: expressed in transfected cells; host or cells: LK35.2 mouse B cell line; assay: LK35.2-hPD-L1 cell binding high-content screening assay; type: cell-based; settings: cell binding assay, cell line not given; cluster symbol; read-out: CBA IC50 cluster
Sequence (Q9NZQ7 19-290): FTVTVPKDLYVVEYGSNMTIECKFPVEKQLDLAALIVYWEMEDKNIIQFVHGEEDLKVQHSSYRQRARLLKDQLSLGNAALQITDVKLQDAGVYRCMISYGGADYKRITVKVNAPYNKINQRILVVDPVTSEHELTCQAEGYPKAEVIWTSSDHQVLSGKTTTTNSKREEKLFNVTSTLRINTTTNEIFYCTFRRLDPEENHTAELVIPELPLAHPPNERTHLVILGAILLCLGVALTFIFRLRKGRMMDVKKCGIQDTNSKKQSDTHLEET
Positions of bridges follow the written chain, without caps; N, C: chain ends. Non-standard residues stand in square brackets, D forms with d. Residues, ends and D or L forms follow the SMILES beside them. Bta = N[C@@H](Cc1csc2ccccc12)C(=O)O; NMeNle = CCCC[C@H](NC)C(=O)O; NMeA = CN[C@@H](C)C(=O)O; Orn = NCCC[C@H](N)C(=O)O; Dab = NCC[C@H](N)C(=O)O; Dap = NC[C@H](N)C(=O)O
Listing: IC50 of selected molecules

molecule="CCCC[C@H]1C(=O)N2CCC[C@@H]2C(=O)N[C@@H](CCCN)C(=O)N[C@H](C(=O)NCC(N)=O)CSCC(=O)N[C@@H](Cc2ccc(O)cc2)C(=O)N(C)[C@@H](C)C(=O)N[C@@H](CC(N)=O)C(=O)N2CCC[C@H]2C(=O)N[C@@H](Cc2cnc[nH]2)C(=O)N[C@@H](CC(C)C)C(=O)N2CCC[C@H]2C(=O)N[C@@H](Cc2c[nH]c3ccccc23)C(=O)N[C@@H](CO)C(=O)N[C@@H](Cc2csc3ccccc23)C(=O)N1C [Example 5010] ({CH2CO}-Y[NMeA]NPHLPWS[Bta][NMeNle][dP][Orn]CG-NH2; thioether N-14)" observed="4.78 to 72.9 nM"

**Q:** Can you look up the measured IC50 of CCCC[C@H]1C(=O)N[C@@H](Cc2c[nH]c3ccccc23)C(=O)N[C@@H](CCN)C(=O)N[C@@H](Cc2c[nH]c3ccccc23)C(=O)N(C)[C@@H](CCCC)C(=O)N(C)[C@@H](CCCC)C(=O)N[C@@H](CC(C)C)C(=O)N[C@H](C(=O)NCC(N)=O)CSCC(=O)N[C@@H](Cc2ccc(O)cc2)C(=O)N(C)[C@@H](C)C(=O)N[C@@H](CC(N)=O)C(=O)N2CCC[C@H]2C(=O)N[C@@H](CN)C(=O)N[C@@H](CC(C)C)C(=O)N1C [Example 6041] ({CH2CO}-Y[NMeA]NP[Dap]L[NMeNle]W[Dab]W[NMeNle][NMeNle]LCG-NH2; thioether N-14) for me?
**A:** 4.78 to 72.9 nM

---

target: LK35.2-hPD-L1 cells / PE-labeled PD-1-Ig (Homo sapiens, UniProt Q9NZQ7); construct: expressed in transfected cells; host or cells: LK35.2 mouse B cell line; test: LK35.2-hPD-L1 cell binding high-content screening assay; type: cell-based; conditions: cluster symbol; cell line of CBA not given (LK35.2-hPD-L1 or 293T-hPD-L1); read-out: CBA IC50 cluster
Starred links: 1 amine or outer side, 2 acyl side, 3 side chain; linkers in the order of their positions; H or OH if unused. Positions of bridges follow the written chain, without caps; N, C: chain ends. Non-standard residues stand in square brackets, D forms with d. Residues, ends and D or L forms follow the SMILES beside them. Phe(4-CH2NH2) = NCc1ccc(C[C@H](N)C(=O)O)cc1; Phe(3-F) = N[C@@H](Cc1cccc(F)c1)C(=O)O; X11 = CC1(C)CC[C@H](C(=O)[*:2])N1[*:1]; Hyp = O=C(O)[C@@H]1C[C@@H](O)CN1; NMeF = CN[C@@H](Cc1ccccc1)C(=O)O; NMeNle = CCCC[C@H](NC)C(=O)O; NMeA = CN[C@@H](C)C(=O)O; Dab = NCC[C@H](N)C(=O)O; Sar = CNCC(=O)O
property-name: IC50

compound="CCCC[C@H]1C(=O)N(C)CC(=O)N[C@@H](CC(=O)O)C(=O)N[C@@H](C(C)C)C(=O)N(C)[C@@H](Cc2ccccc2)C(=O)N[C@@H](Cc2ccc(O)cc2)C(=O)N2[C@H](CCC2(C)C)C(=O)N[C@@H](Cc2c[nH]c3ccccc23)C(=O)N[C@@H](Cc2ccc(O)cc2)C(=O)N[C@@H](CC(C)C)C(=O)N[C@H](C(=O)NCC(N)=O)CSCC(=O)N[C@@H](Cc2ccccc2)C(=O)N(C)[C@@H](Cc2ccccc2)C(=O)N1C [Example 3184] ({CH2CO}-F[NMeF][NMeNle][Sar]DV[NMeF]Y[X11]WYLCG-NH2; thioether N-13)" observed="> 74.3 nM"
compound="CCCC[C@@H]1C(=O)N(C)[C@H](CCCC)C(=O)N[C@@H](CCCN)C(=O)N[C@@H](C(=O)NCC(N)=O)CSCC(=O)N[C@@H](Cc2ccc(O)cc2)C(=O)N2CCNCC2C(=O)N[C@H](CC(N)=O)C(=O)N2CCC[C@H]2C(=O)N[C@H](Cc2c[nH]cn2)C(=O)N[C@@H](CC(C)C)C(=O)N2C[C@H](O)CC2C(=O)N[C@H](Cc2c[nH]c3ccccc23)C(=O)N[C@@H](CO)C(=O)N[C@@H](Cc2c[nH]c3ccccc23)C(=O)N1C (stereo partly shown) [Example 1220]" observed="4.78 to 72.9 nM"
compound="CCCC[C@H]1C(=O)N(C)[C@@H](CCCC)C(=O)N[C@@H](C)C(=O)N[C@H](C(N)=O)CSCC(=O)N[C@@H](Cc2ccc(O)cc2)C(=O)N(C)[C@@H](C)C(=O)N[C@@H](CCC(=O)O)C(=O)N2CCC[C@H]2C(=O)N[C@@H](Cc2cnc[nH]2)C(=O)N[C@@H](CCN)C(=O)N2C[C@H](O)C[C@H]2C(=O)N[C@@H](Cc2c[nH]c3ccccc23)C(=O)N[C@@H](CO)C(=O)N[C@@H](Cc2c[nH]c3ccccc23)C(=O)N1C [Example 1239] ({CH2CO}-Y[NMeA]EPH[Dab][Hyp]WSW[NMeNle][NMeNle]AC-NH2; thioether N-14)" observed="4.78 to 72.9 nM"

Could you now consider this next compound?
**Q:** Can you look up the measured IC50 of CCCC[C@H]1C(=O)N(C)CC(=O)N[C@@H](CC(=O)O)C(=O)N[C@@H](C(C)C)C(=O)N(C)[C@@H](Cc2ccccc2)C(=O)N[C@@H](Cc2ccc(CN)cc2)C(=O)N(C)CC(=O)N[C@@H](Cc2c[nH]c3ccccc23)C(=O)N[C@@H](Cc2ccc(O)cc2)C(=O)N[C@@H](CC(C)C)C(=O)N[C@H](C(=O)NCC(N)=O)CSCC(=O)N[C@@H](Cc2cccc(F)c2)C(=O)N(C)[C@@H](Cc2ccccc2)C(=O)N1C [Example 3124] ({CH2CO}-[Phe(3-F)][NMeF][NMeNle][Sar]DV[NMeF][Phe(4-CH2NH2)][Sar]WYLCG-NH2; thioether N-13) for me?
**A:** 0.158 to 4.71 nM

---

target: Human PD-L1/PD-1 (Homo sapiens, UniProt Q9NZQ7); construct: made in house; host or cells: HEK293T; test: HTRF PD-1-Ig/PD-L1-His binding assay (human PD-L1); conditions: cluster symbol; read-out: HTRF IC50 cluster
Sequence (Q9NZQ7 with tags, fused parts or gaps): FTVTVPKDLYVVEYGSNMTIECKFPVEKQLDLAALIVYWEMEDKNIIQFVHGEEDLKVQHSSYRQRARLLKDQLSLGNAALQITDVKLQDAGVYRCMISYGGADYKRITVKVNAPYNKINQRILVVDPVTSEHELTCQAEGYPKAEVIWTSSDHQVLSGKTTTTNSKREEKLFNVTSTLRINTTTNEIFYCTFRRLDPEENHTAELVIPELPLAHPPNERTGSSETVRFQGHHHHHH
Positions of bridges follow the written chain, without caps; N, C: chain ends. Non-standard residues stand in square brackets, D forms with d. Residues, ends and D or L forms follow the SMILES beside them. ξ: configuration not given here. Trp(5-Cl) = N[C@@H](Cc1c[nH]c2ccc(Cl)cc12)C(=O)O; cisHyp = O=C(O)[C@@H]1C[C@H](O)CN1; NMeF = CN[C@@H](Cc1ccccc1)C(=O)O; NMeNle = CCCC[C@H](NC)C(=O)O; NMeM = CN[C@@H](CCSC)C(=O)O; NMeA = CN[C@@H](C)C(=O)O; Orn = NCCC[C@H](N)C(=O)O; Dap = NC[C@H](N)C(=O)O; ξC = NC(CS)C(=O)O; Sar = CNCC(=O)O
Listing: IC50 of selected compounds

These recorded examples may help you get a feel for the data.
compound="CCCC[C@H]1C(=O)N(C)[C@@H](CCCC)C(=O)N[C@@H](CCCNC(=N)N)C(=O)N[C@H](C(=O)NCC(N)=O)CSCC(=O)N[C@@H](Cc2ccc(O)cc2)C(=O)N(C)[C@@H](C)C(=O)N[C@@H](CN)C(=O)N2CCC[C@H]2C(=O)N[C@@H](C)C(=O)N[C@@H](CC(C)C)C(=O)N2C[C@@H](O)C[C@H]2C(=O)N[C@@H](Cc2c[nH]c3ccccc23)C(=O)N[C@@H](CO)C(=O)N[C@@H](Cc2c[nH]c3ccccc23)C(=O)N1C [Example 1143] ({CH2CO}-Y[NMeA][Dap]PAL[cisHyp]WSW[NMeNle][NMeNle]RCG-NH2; thioether N-14)" observed="> 30.5 nM"
compound="CCCC[C@H]1C(=O)N(C)[C@@H](CCSC)C(=O)N[C@@H](CCCNC(=N)N)C(=O)NC(C(=O)NCC(N)=O)CSCC(=O)N[C@@H](Cc2ccc(O)cc2)C(=O)N(C)[C@@H](C)C(=O)N[C@@H](CC(N)=O)C(=O)N2CCC[C@H]2C(=O)N[C@@H](CN)C(=O)N[C@@H](CC(C)C)C(=O)N2CCC[C@H]2C(=O)N[C@@H](Cc2c[nH]c3ccccc23)C(=O)N[C@@H](CO)C(=O)N[C@@H](Cc2c[nH]c3ccccc23)C(=O)N1C (stereo partly shown) [Example 9081] ({CH2CO}-Y[NMeA]NP[Dap]LPWSW[NMeNle][NMeM]R[ξC]G-NH2; thioether N-14)" observed="0.385 to 6.74 nM"
compound="CCCC[C@H]1C(=O)N(C)[C@@H](CCCC)C(=O)N[C@@H](CCCNC(=N)N)C(=O)N[C@H](C(=O)NCC(N)=O)CSCC(=O)N[C@@H](Cc2ccccc2)C(=O)N(C)[C@@H](C)C(=O)N[C@@H](CC(N)=O)C(=O)N2CCC[C@H]2C(=O)N[C@@H](Cc2cnc[nH]2)C(=O)N[C@@H](CC(C)C)C(=O)N(C)CC(=O)N[C@@H](Cc2c[nH]c3ccccc23)C(=O)N[C@@H](CCCN)C(=O)N[C@@H](Cc2c[nH]c3ccccc23)C(=O)N1C [Example 1070] ({CH2CO}-F[NMeA]NPHL[Sar]W[Orn]W[NMeNle][NMeNle]RCG-NH2; thioether N-14)" observed="6.76 to 30.3 nM"

**Q:** Request - read-out IC50 | tested on Human PD-L1/PD-1 (Homo sapiens, UniProt Q9NZQ7) | compound CCCC[C@H]1C(=O)N(C)CC(=O)N[C@@H](CC(=O)O)C(=O)N[C@@H](C(C)C)C(=O)N(C)[C@@H](Cc2ccccc2)C(=O)N[C@@H](Cc2c[nH]c3ccc(Cl)cc23)C(=O)N(C)CC(=O)N[C@@H](Cc2c[nH]c3ccccc23)C(=O)N[C@@H](Cc2ccc(O)cc2)C(=O)N[C@@H](CC(C)C)C(=O)N[C@H](C(=O)NCC(N)=O)CSCC(=O)N[C@@H](Cc2ccccc2)C(=O)N(C)[C@@H](Cc2ccccc2)C(=O)N1C [Example 3109] ({CH2CO}-F[NMeF][NMeNle][Sar]DV[NMeF][Trp(5-Cl)][Sar]WYLCG-NH2; thioether N-13)
**A:** > 30.5 nM

Where these numbers come from: patent US9850283B2
